measurement-notes: OV-SAHO Cancer Cell Toxicity qHTS against the NCATS CANVASS Library (AID 1347348); also: nearly all actives have a fitted effect of over 55% in size
conditions: OV-SAHO viability, CellTiter-Glo luminescence, 72 h; series mostly up to 38.3 µM
Records with an inconclusive call do not appear. Activity calls are given as the source filed them. Calls follow the shape of the dose curve; as a rule, active = well fitted cell-killing curve with a large enough effect; inconclusive = small, poorly fitted or top-dose-only effect; inactive = flat fitted curve, though single readings scatter.
Pick one and only one: yes (1) (active), no (0) (inactive)

Data request: GET /call?item= C/C1=C/[C@@H](C)[C@H](O)[C@@H](O)/C=C/CC/C=C/C(=O)O[C@@H]1[C@H](C)C(=O)CCCC1CC(=O)NC(=O)C1 returns the recorded outcome of this test.
Data returned: no (0)

Data request: GET /call?item= C[C@H](CCC(O)C(C)(O)CO)[C@@]1(O)CC[C@@]2(C)C3=C(CC[C@@]21C)[C@@]1(C)CCC(OC(=O)CCC(=O)O)C(C)(C)[C@@H]1CC3 (some centres not stated) returns the recorded outcome of this test.
Data returned: no (0)

Data request: GET /call?item= C/C(=C\[C@@H](C)CC/C=C/CC/C=C/C(=O)O)[C@@H](O)[C@H](C)C(=O)CCCC1CC(=O)NC(=O)C1 returns the recorded outcome of this test.
Data returned: no (0)

Data request: GET /call?item= CN1CC[C@]2(c3cccc4c3N[C@H]3N(C)CC[C@@]43[C@]34CCN(C)[C@H]3Nc3ccccc34)c3ccccc3N[C@H]12 returns the recorded outcome of this test.
Data returned: yes (1)

Data request: GET /call?item= C=C1C(=O)O[C@H]2[C@H]1CCC(C)=C1CC[C@@](C)(O)[C@@H]12 returns the recorded outcome of this test.
Data returned: yes (1)

Data request: GET /call?item= C/C=C/c1cc2c(c(=O)o1)C(=O)[C@@H](O)[C@H](C)O2 returns the recorded outcome of this test.
Data returned: yes (1)
